Test system: K. pneumoniae 2690
Assay: MIC against K. pneumoniae 2690
Assay type: cell-based
Details: Klebsiella pneumoniae; Table 3; K. pneumoniae 2690, KPC-2; alone; read-out: MIC
OUTCOME MEASURE: MIC (µg/mL)

Below are worked cases with known answers.
CO/N=C(\C(=O)N[C@@H]1C(=O)N2C(C(=O)[O-])=C(C[n+]3ccc4c(ccn4Cc4cc(C(=N)Nc5ccccc5)cs4)c3)CS[C@H]12)c1nc(N)sc1Cl [Example 12] :: 8
CO/N=C(\C(=O)N[C@@H]1C(=O)N2C(C(=O)[O-])=C(C[n+]3ccc4c(ccn4Cc4cc(C(=N)Nc5nccs5)cs4)c3)CS[C@H]12)c1nc(N)sc1Cl [Example 14] :: 32
CC(C)(O/N=C(\C(=O)N[C@@H]1C(=O)N2C(C(=O)[O-])=C(C[n+]3ccc4n(Cc5ccc(C(=N)N)cc5)ccn43)CS[C@H]12)c1csc(N)n1)C(=O)O [Example 4] :: 16
CC(C)(O/N=C(\C(=O)N[C@@H]1C(=O)N2C(C(=O)[O-])=C(C[n+]3ccc4c(ccn4Cc4cc(C(=N)N)cs4)c3)CS[C@H]12)c1csc(N)n1)C(=O)O [Example 5] :: 8
CC(C)(O/N=C(\C(=O)N[C@@H]1C(=O)N2C(C(=O)[O-])=C(C[n+]3ccc4n3CCN4Cc3ccc(C(=N)N)cc3)CS[C@H]12)c1csc(N)n1)C(=O)O [Example 2] :: 32

(A) CC(C)(O/N=C(\C(=O)N[C@@H]1C(=O)N2C(C(=O)[O-])=C(C[n+]3ccc4c(ccn4Cc4ccc(C(=N)N)cc4)c3)CS[C@H]12)c1csc(N)n1)C(=O)O [Ex-1]
(B) CC(C)(O/N=C(\C(=O)N[C@@H]1C(=O)N2C(C(=O)[O-])=C(C[n+]3ccc4c(ccn4Cc4cc(C(=N)N)co4)c3)CS[C@H]12)c1csc(N)n1)C(=O)O [Example 6]
Pick one: A or B . Which has the bigger MIC number? Use the label to indicate which entry you chose.
A
(A: 32 µg/mL, B: 16 µg/mL)
